Biological target: GTPase KRas (Homo sapiens, UniProt P01116, G12V)
Test: Inhibition of alexa fluor 647-labeled kinase tracer 314 binding to biotinylated-KRAS G12V mutant (unknown origin) measured after 60 mins by HTRF competition binding assay
Details: read-out: IC50

- item smiles: "CC(C)C[C@H](NC(=O)[C@@H]1COCc2cnnn2CCCCC(=O)NCC(=O)N2CCC[C@H]2C(=O)N[C@@H](Cc2cccnc2)C(=O)N1)C(N)=O"
  tested target: "GTPase KRas (Homo sapiens, UniProt P01116, G12V)"
  operator: "="
  IC50 [µM]: 41
- item smiles: "CC[C@H](C)[C@@H]1NC(=O)[C@@H]2CCCN2C(=O)[C@H](Cc2ccc(O)cc2)NC(=O)CCCCn2nncc2COC[C@@H](C(=O)N[C@@H](CC(C)C)C(N)=O)NC1=O"
  tested target: "GTPase KRas (Homo sapiens, UniProt P01116, G12V)"
  operator: ">"
  IC50 [µM]: 100
- item smiles: "CC(C)C[C@H](NC(=O)[C@@H]1COCc2cnnn2CCCCC(=O)NCC(=O)N2CCC[C@H]2C(=O)N[C@@H](CC2CC2)C(=O)N1)C(N)=O"
  tested target: "GTPase KRas (Homo sapiens, UniProt P01116, G12V)"
  operator: "="
  IC50 [µM]: 32
- item smiles: "CC[C@@H](C)[C@@H]1NC(=O)[C@@H]2CCCN2C(=O)[C@H](Cc2ccc(O)cc2)NC(=O)[C@@H](NC(=O)[C@H](CC(=O)O)NC(C)=O)CCCn2nncc2COC[C@@H](C(=O)N[C@@H](CC(C)C)C(=O)N[C@@H](CC(C)C)C(=O)N2CCC[C@H]2C(N)=O)NC1=O"
  tested target: "GTPase KRas (Homo sapiens, UniProt P01116, G12V)"
  operator: ">"
  IC50 [µM]: 89
- item smiles: "CC(C)C[C@H](NC(=O)[C@@H]1COCc2cnnn2CCCCCCCCCC(=O)N2CCC[C@H]2C(=O)N[C@@H](Cc2cccc3ccccc23)C(=O)N1)C(N)=O"
  tested target: "GTPase KRas (Homo sapiens, UniProt P01116, G12V)"
  operator: "="
  IC50 [µM]: 28
